# targetSystem: Hfq72 (Escherichia coli, UniProt P0A6X3 1-72)
# protocolSummary: ITC; first of two events; ITC/FA: 0.25 M NaCl, 20 mM Hepes/NaOH pH 8.0, 5 mM MgCl2, 2% glycerol, 25 C (FA plus 1 g/l BSA); EMSA: 0.25 M NaCl, 50 mM Tris pH 7.5, 10% glycerol, 25 C, 20 nM RNA, 2-200 nM Hfq
# experimentalConditions: protein: recombinant; tags: 6xHis-SUMO tag cleaved (SenP2); chain copies: 6; label: none (AUC, ITC); 5'-32P (EMSA)
resultType: Kd (nM)
One number for each entry, in nM.

In: State, in one line, measured Kd of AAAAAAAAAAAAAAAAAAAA (ssRNA) [A20]
Out: 1.3
